Please provide measured pKd for the entries that follow.
Molecular target: T1, recombinant human Tau monomer, 2N4R isoform (amino acids 2-441) (human, UniProt P10636-8 2-441)
T1 construct: range 2-441; N-terminal His-tag removed with TEV protease; also called monomeric Tau
T1 sequence (P10636 other isoform, or with tags, fused parts or gaps limits assumed): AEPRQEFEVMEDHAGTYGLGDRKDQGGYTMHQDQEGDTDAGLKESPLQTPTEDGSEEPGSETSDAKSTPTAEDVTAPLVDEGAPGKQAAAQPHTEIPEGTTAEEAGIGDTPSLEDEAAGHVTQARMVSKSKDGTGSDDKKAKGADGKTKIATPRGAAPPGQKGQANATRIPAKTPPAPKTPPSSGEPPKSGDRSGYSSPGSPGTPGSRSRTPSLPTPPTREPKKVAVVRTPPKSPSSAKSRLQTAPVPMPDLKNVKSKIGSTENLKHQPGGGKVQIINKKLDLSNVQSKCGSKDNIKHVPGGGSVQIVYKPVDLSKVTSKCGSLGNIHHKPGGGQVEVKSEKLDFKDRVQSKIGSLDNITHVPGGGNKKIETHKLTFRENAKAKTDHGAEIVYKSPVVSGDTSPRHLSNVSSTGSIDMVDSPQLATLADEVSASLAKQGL
Test: SPR, captured IgG, Tau monomer analyte, 1:1 model; fit-quality column: Yes
One number for each entry, as −log10 of the molar value.

{"binder": "hu37D3.v28.F2 (antibody, V domains shown) VH: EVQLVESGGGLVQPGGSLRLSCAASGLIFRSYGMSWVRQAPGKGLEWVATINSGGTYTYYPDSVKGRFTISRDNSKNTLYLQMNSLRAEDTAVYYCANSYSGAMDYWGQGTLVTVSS VL: DDVLTQTPLSLPVTPGQPASISCRSSQSIVHTNGNTYFEWYLQKPGQSPQLLIYKVSNRFSGVPDRFSGSGSGTDFTLKISRVEAEDVGVYYCFQGSLVPWTFGQGTKVEIK", "value-measured": 8.72}
{"binder": "hu37D3-H9.v31.9 (antibody, V domains shown) VH: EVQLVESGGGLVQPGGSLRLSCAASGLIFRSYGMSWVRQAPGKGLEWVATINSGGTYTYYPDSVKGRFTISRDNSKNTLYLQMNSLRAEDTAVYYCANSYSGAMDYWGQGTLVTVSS VL: DDVLTQTPLSLPVTPGQPASISCRSSQSIVHSNANIYFEWYLQKPGQSPQLLIYKVSNRFSGVPDRFSGSGSGTDFTLKISRVEAEDVGVYYCFQGSLVPWTFGQGTKVEIK", "value-measured": 8.12}
{"binder": "hu37D3-H9.v5.7 (antibody, V domains shown) VH: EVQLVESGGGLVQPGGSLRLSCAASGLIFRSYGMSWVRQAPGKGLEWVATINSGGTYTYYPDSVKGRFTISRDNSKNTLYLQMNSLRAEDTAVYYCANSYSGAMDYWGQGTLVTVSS VL: EDVLTQTPLSLPVTPGQPASISCRSSQSIVHSNGDTYFEWYLQKPGQSPQLLIYKVSNRFSGVPDRFSGSGSGTDFTLKISRVEAEDVGVYYCFQGSLVPWTFGQGTKVEIK", "value-measured": 7.89}

I have 5 binders here; please give me pKd for each one.
1. hu37D3.v29.9 (antibody, V domains shown) VH: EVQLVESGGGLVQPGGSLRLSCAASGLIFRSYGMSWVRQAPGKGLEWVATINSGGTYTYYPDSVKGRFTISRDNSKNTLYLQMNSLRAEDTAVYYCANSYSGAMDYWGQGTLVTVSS VL: EDVLTQTPLSLPVTPGQPASISCRSSQSIVHSNAQTYFEWYLQKPGQSPQLLIYKVSNRFSGVPDRFSGSGSGTDFTLKISRVEAEDVGVYYCFQGSLVPWTFGQGTKVEIK
2. hu37D3.v28.A4 (antibody, V domains shown, also called hu37D3-H9.v28.A4) VH: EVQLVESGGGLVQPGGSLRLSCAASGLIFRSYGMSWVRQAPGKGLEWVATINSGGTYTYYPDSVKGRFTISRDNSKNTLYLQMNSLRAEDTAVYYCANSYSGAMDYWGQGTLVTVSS VL: DDVLTQTPLSLPVTPGQPASISCRSSQSIVHSNGNTYLEWYLQKPGQSPQLLIYKVSNRFSGVPDRFSGSGSGTDFTLKISRVEAEDVGVYYCFQGSLVPWTFGQGTKVEIK
3. hu37D3-H9.v31.8 (antibody, V domains shown) VH: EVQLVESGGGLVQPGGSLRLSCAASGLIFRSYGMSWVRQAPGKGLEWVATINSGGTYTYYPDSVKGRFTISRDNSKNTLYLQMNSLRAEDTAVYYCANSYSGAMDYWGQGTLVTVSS VL: DDVLTQTPLSLPVTPGQPASISCRSSQSIVHSNANVYFEWYLQKPGQSPQLLIYKVSNRFSGVPDRFSGSGSGTDFTLKISRVEAEDVGVYYCFQGSLVPWTFGQGTKVEIK
4. hu37D3-H9.v30.11 (antibody, V domains shown) VH: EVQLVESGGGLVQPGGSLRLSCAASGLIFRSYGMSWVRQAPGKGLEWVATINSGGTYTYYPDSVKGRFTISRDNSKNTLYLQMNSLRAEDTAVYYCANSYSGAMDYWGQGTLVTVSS VL: DDVLTQTPLSLPVTPGQPASISCRSSQSIVHSRGNTYFEWYLQKPGQSPQLLIYKVSNRFSGVPDRFSGSGSGTDFTLKISRVEAEDVGVYYCFQGSLVPWTFGQGTKVEIK
5. hu37D3-H9.v5.9 (antibody, V domains shown) VH: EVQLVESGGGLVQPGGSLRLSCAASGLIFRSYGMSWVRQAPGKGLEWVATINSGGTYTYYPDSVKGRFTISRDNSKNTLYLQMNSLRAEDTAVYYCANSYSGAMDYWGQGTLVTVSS VL: EDVLTQTPLSLPVTPGQPASISCRSSQSIVHSNGETYFEWYLQKPGQSPQLLIYKVSNRFSGVPDRFSGSGSGTDFTLKISRVEAEDVGVYYCFQGSLVPWTFGQGTKVEIK

Result:
8.14
8.92
7.96
7.68
8.28

Values from patent US20190367592A1
